- Tested on: U2OS
- assay details: nuclei count (viability) relative to DMSO (% of DMSO); higher = more viable cells
- condition parameters: 10 µM; 24 h
Counter-ions that a name gives are not always drawn. Whole data set: some 3,200 compounds, median “nuclei count (viability) relative to DMSO” near 99, cut for the lowest 2% near 16. The full list was thinned out, with the lowest values kept by preference.
quantity measured: nuclei count
// keep it numeric: no unit symbol after the value

A selection of reference data follows.
molecule: C[C@@H]1CC[C@@]2(OC1)O[C@H]1C[C@H]3[C@@H]4CC=C5C[C@@H](O[C@@H]6O[C@H](CO)[C@@H](O[C@@H]7O[C@@H](C)[C@H](O)[C@@H](O)[C@H]7O)[C@H](O)[C@H]6O[C@@H]6O[C@@H](C)[C@H](O)[C@@H](O)[C@H]6O)CC[C@]5(C)[C@H]4CC[C@]3(C)[C@H]1[C@@H]2C [Dioscin (Collettiside III)]
nuclei count: 9.01
--
molecule: O=C1Nc2cc(Cl)c(Cl)cc2N2CCNCC12 (configuration not stated)
nuclei count: 95.9
--
molecule: COc1ccc(C[C@H]2NC[C@H](O)[C@H]2OC(C)=O)cc1 [Anisomycin]
nuclei count: 12.5
--
molecule: N#CC(C#N)=Cc1ccc(O)cc1 [Tyrphostin 8]
nuclei count: 102
--
molecule: Oc1ccc2c3c1O[C@H]1c4[nH]c5c(c4C[C@@]4(O)[C@@H](C2)N(CC2CC2)CC[C@]314)C[C@@]1(O)[C@H]2Cc3ccc(O)c4c3[C@@]1(CCN2CC1CC1)[C@H]5O4 [nor-Binaltorphimine dihydrochloride]
nuclei count: 99.1
--
molecule: O=C1/C(=C/c2ccccc2)C[C@@]2(O)[C@H]3Cc4ccc(O)c5c4[C@@]2(CCN3CC2CC2)[C@H]1O5 [BNTX maleate]
nuclei count: 3.38

For the next question, use this molecule.
# nuclei count of O=C1CC[C@@]2(O)[C@H]3Cc4ccc(O)c5c4[C@@]2(CCN3CC2CC2)[C@H]1O5 [Naltrexone hydrochloride dihydrate] = 105
